# Tested on: A549
# EXPERIMENTAL_DETAILS: relative viability (normalised to negative control = 1, bortezomib = 0) (fraction); higher = less cytotoxic
# PROTOCOL_CONDITIONS: inflammatory serum-free RHB-A with cytokines + LPS; 5 d + 24 h CellTiter-Blue; compound 300 nM; GSK126 pretreatment: none (vehicle)
Label t when relative viability is strictly below 0.8; at or above that, label f.

Record excerpt, results attached:
C[S+]([O-])c1ccc(-c2nc(-c3ccc(F)cc3)c(-c3ccncc3)[nH]2)cc1 (stereo not given) :: f
C[C@@H]1CCN(C(=O)CC#N)C[C@@H]1N(C)c1ncnc2[nH]ccc12 :: f
O=C(CCCCCCC(=O)Nc1ccccc1)NO :: f
CC(C)Cn1cnc2c(N)nc3ccccc3c21 :: f
OCCn1cc(-c2ccc3c(c2)CC/C3=N\O)c(-c2ccncc2)n1 :: f

State whether 0.8 exceeds relative viability recorded for `CC(C)C[C@H](NC(=O)[C@H](Cc1ccccc1)NC(=O)c1cnccn1)B(O)O` .
t

Item `Cc1c(NC(=O)OC[C@@H]2COCCN2)cn2ncnc(Nc3ccc4c(cnn4Cc4cccc(F)c4)c3)c12` : relative viability beneath 0.8, strictly?
t

Quick check: relative viability of `C=CC(=O)N1CCC[C@@H](n2nc(-c3ccc(Oc4ccccc4)cc3)c3c(N)ncnc32)C1` under 0.8?
t
